Every entry's value here was drawn from the NIST ThermoML archive (doi:10.1016/j.fluid.2009.01.011).

experimental_details: activity coefficient (dimensionless); of the first substance listed, at infinite dilution; xn = mol fraction of the nth substance listed
condition_info: 348.15 K; Liquid; Chromatography; x1 = 0
endpoint_name: activity coefficient
Write no unit; give the number alone.

Enquiry: Given the compound CCCCO [butan-1-ol] + CCCC[N+]1(C)CCCC1.O=S(=O)([O-])C(F)(F)F , what is its reported activity coefficient?
Return: 1.35

Enquiry: Similarly, CCCCCCCCC [nonane] + CCCC[N+]1(C)CCCC1.O=S(=O)([O-])C(F)(F)F ?
Return: 85.2

Enquiry: Similarly, Cc1ccccc1C [1,2-dimethylbenzene] + CCCC[N+]1(C)CCCC1.O=S(=O)([O-])C(F)(F)F ?
Return: 2.99

Enquiry: Similarly, CCO [ethanol] + CCCC[N+]1(C)CCCC1.O=S(=O)([O-])C(F)(F)F ?
Return: 0.827

Enquiry: Similarly, C1CCCCC1 [cyclohexane] + CCCC[N+]1(C)CCCC1.O=S(=O)([O-])C(F)(F)F ?
Return: 16.8

Enquiry: Similarly, C1CCCCCCC1 [cyclooctane] + CCCC[N+]1(C)CCCC1.O=S(=O)([O-])C(F)(F)F ?
Return: 25.1

Enquiry: Similarly, C#CCCCCC [1-heptyne] + CCCC[N+]1(C)CCCC1.O=S(=O)([O-])C(F)(F)F ?
Return: 5.64

Enquiry: Similarly, CCCCCCCCCC [decane] + CCCC[N+]1(C)CCCC1.O=S(=O)([O-])C(F)(F)F ?
Return: 120

Enquiry: Similarly, C=CCCCCC [1-heptene] + CCCC[N+]1(C)CCCC1.O=S(=O)([O-])C(F)(F)F ?
Return: 22.6
